targetOrTestSystem: recombinant human 5-HT4 receptor (Homo sapiens, UniProt Q13639)
Construct: expressed in transfected cells
Sequence (Q13639 whole entry): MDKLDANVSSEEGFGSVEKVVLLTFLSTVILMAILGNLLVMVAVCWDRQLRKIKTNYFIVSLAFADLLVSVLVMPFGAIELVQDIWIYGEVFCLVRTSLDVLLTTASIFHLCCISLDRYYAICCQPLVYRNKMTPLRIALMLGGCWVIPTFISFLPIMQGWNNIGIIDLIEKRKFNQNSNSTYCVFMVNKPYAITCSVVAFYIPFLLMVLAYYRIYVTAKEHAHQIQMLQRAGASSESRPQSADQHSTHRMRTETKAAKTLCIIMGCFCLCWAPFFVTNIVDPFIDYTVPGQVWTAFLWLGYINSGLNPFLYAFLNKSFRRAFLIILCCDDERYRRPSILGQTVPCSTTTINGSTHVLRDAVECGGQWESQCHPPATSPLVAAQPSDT
protocolDetails: Determination of EC50 values for 5-HT4 receptor (CRE-luciferase reporter, CHO cells)
Assay type: cell-based
experimentalSetup: stable CHO cell line expressing recombinant human 5-HT4 receptor and pCRE-Luc reporter; 4 hours incubation; luciferase activity
Counter-ions that a name gives are not always drawn.
property: EC50 (nM)
Enter your answer as a number in nM; do not include the unit.

Use the examples below as a reference point.
molecule: CC(C)n1c(=O)c(C(=O)NCCCN2C3CC4CC(C3)CC2C4)c(O)c2cc(F)ccc21
EC50 / nM: 935

molecule: CC(C)n1c(=O)c(C(=O)NCCN2C3CC4CC(C3)CC2C4)c(O)c2ccccc21 [Example 17, hydrochloride]
EC50 / nM: 1150

molecule: CC(C)n1c(=O)c(C(=O)NCCCN2C3CC4CC(C3)CC2C4)c(O)c2cc(Cl)ccc21
EC50 / nM: 3080

molecule: CC(C)n1c(=O)c(C(=O)NCCCN2C3CC4CC(C3)CC2C4)c(O)c2cc(Br)ccc21
EC50 / nM: 2800

Let's switch to this molecule now.
Param item = CCCCN1C2CC3CC1CC(NC(=O)c1c(O)c4ccccc4n(C(C)C)c1=O)(C3)C2 [Example 18, hydrochloride] ; retrieve measured EC50.
958

* * *

protocolDetails: Rodent pharmacokinetic study
Type: in vivo
experimentalSetup: Wistar, rat; Wister/Male rats, 5 mg/kg, Intravenous, vehicle Water, plasma
property: AUC(0-t) (ng·h/mL)
Enter your answer as a number in ng·h/mL; do not include the unit.

molecule: CC(C)n1c(=O)c(C(=O)NCCCN2C3CC4CC2CC(O)(C4)C3)c(O)c2ccccc21 [Example 4]
AUC(0-t), ng·h/mL: 1660

Param item = CC(C)n1c(=O)c(C(=O)NCCCN2C3CC4CC(C3)CC2C4)c(O)c2ccccc21.Cl [Example 1] ; retrieve measured AUC(0-t).
3020

Same for CC(C)n1c(=O)c(C(=O)NC23CC4CC(C2)N(C)C(C4)C3)c(O)c2ccccc21 [Example 14]
820

* * *

protocolDetails: Rodent brain penetration study
Assay type: in vivo
experimentalSetup: Wistar, rat; Wister/Male rats, 10 mg/kg, Oral, vehicle Water; brain/plasma; read-out: Steady State Brain Penetration (Cb/Cp)
Kp listing for selected compounds.

compound: CC(C)n1c(=O)c(C(=O)NC23CC4CC(C2)N(C)C(C4)C3)c(O)c2ccccc21
Kp: 2.97

Param item = CC(C)n1c(=O)c(C(=O)NCCCN2C3CC4CC(C3)CC2C4)c(O)c2ccccc21.Cl [Example 1, hydrochloride] ; retrieve measured Kp.
0.2

Same for "CC(C)n1c(=O)c(C(=O)NCCCN2C3CC4CC2CC(O)(C4)C3)c(O)c2ccccc21"
0.66

* * *

protocolDetails: Rodent pharmacokinetic study
Assay type: in vivo
experimentalSetup: Wistar, rat; Wister/Male rats, 5 mg/kg, Oral, vehicle Water, plasma
AUC(0-t) listing for selected compounds.
Quick note: unit goes after the number.

compound: CC(C)n1c(=O)c(C(=O)NCCCN2C3CC4CC(C3)CC2C4)c(O)c2ccccc21.Cl [Example 1]
AUC(0-t): 801 ng·h/mL
//
compound: CC(C)n1c(=O)c(C(=O)NC23CC4CC(C2)N(C)C(C4)C3)c(O)c2ccccc21 [Example 14]
AUC(0-t): 223 ng·h/mL

Let's switch to this compound now.
Param item = CC(C)n1c(=O)c(C(=O)NCCCN2C3CC4CC2CC(O)(C4)C3)c(O)c2ccccc21 [Example 4] ; retrieve measured AUC(0-t).
547 ng·h/mL

* * *

protocolDetails: Rodent pharmacokinetic study
Format: in vivo
experimentalSetup: Wistar, rat, plasma; Wister/Male rats, 5 mg/kg, Oral versus Intravenous
property: bioavailability (%)
Enter your answer as a number in %; do not include the unit.

Use the examples below as a reference point.
molSmiles: CC(C)n1c(=O)c(C(=O)NC23CC4CC(C2)N(C)C(C4)C3)c(O)c2ccccc21
numericValue: 28

molSmiles: CC(C)n1c(=O)c(C(=O)NCCCN2C3CC4CC2CC(O)(C4)C3)c(O)c2ccccc21
numericValue: 34

Let's switch to this compound now.
Param item = "CC(C)n1c(=O)c(C(=O)NCCCN2C3CC4CC(C3)CC2C4)c(O)c2ccccc21.Cl" ; retrieve measured bioavailability.
26

* * *

targetOrTestSystem: recombinant human 5-HT4 receptor (Homo sapiens)
protocolDetails: Determination of EC50 values for 5-HT4 receptor (CRE-luciferase reporter, CHO cells)
experimentalSetup: stable CHO cell line expressing recombinant human 5-HT4 receptor and pCRE-Luc reporter; 4 hours incubation; luciferase activity
Counter-ions that a name gives are not always drawn.
EC50 listing for selected compounds.
Enter your answer as a number in nM; do not include the unit.

Use the examples below as a reference point.
compound: CC(C)n1c(=O)c(C(=O)NCCCN2C3CC4CC(C3)CC2C4)c(O)c2ccccc21.Cl [Example 1, hydrochloride]
EC50, nM: 230

compound: CC(C)Cn1c(=O)c(C(=O)NCCCN2C3CC4CC(C3)CC2C4)c(O)c2ccccc21 [Example 2, hydrochloride]
EC50, nM: 4020

compound: CC(C)n1c(=O)c(C(=O)NC2C3CCN(CC3)C2Cc2ccccn2)c(O)c2ccccc21 (stereo not drawn)
EC50, nM: 462

compound: CC(C)n1c(=O)c(C(=O)NC23CC4CC(C2)N(C)C(C4)C3)c(O)c2ccccc21
EC50, nM: 307

compound: CC(C)n1c(=O)c(C(=O)NCCCN2C3CC4CC2CC(c2ccccc2)(C4)C3)c(O)c2ccccc21 [Example 5, hydrochloride]
EC50, nM: 1600

compound: CC(C)n1c(=O)c(C(=O)NC2C3CCN(CC3)C2Cc2cccnc2)c(O)c2ccccc21 (stereo not drawn)
EC50, nM: 972

compound: CC(C)n1c(=O)c(C(=O)NC23CC4CC2CC(N2CCCC2)(C4)C3)c(O)c2ccccc21 (stereo not drawn)
EC50, nM: 476

compound: CCN1C2CC3CC1CC(CNC(=O)c1c(O)c4ccccc4n(C(C)C)c1=O)(C3)C2.Cl [Example 19, hydrochloride]
EC50, nM: 645

compound: CCCCN1CCC(NC(=O)c2c(O)c3ccccc3n(C(C)C)c2=O)CC1 [Example 20, hydrochloride]
EC50, nM: 77

compound: CC(C)n1c(=O)c(C(=O)NCCCN2C3CC4CC2CC(O)(C4)C3)c(O)c2ccccc21
EC50, nM: 421

Missing value: EC50, recombinant human 5-HT4 receptor (Homo sapiens), entry CC(C)n1c(=O)c(C(=O)NC2CCN(C3C4CC5CC(C4)CC3C5)C2)c(O)c2ccccc21 (stereo not drawn) . Fill in?
1110

Same for CC(C)n1c(=O)c(C(=O)NCCCN2CC3CC4CC2CN(C4)C3)c(O)c2ccccc21 (stereo not drawn)
667

Same for "CC(C)n1c(=O)c(C(=O)NCCCN2C3CC4CC(C3)CC2C4)c(O)c2cc(N)ccc21"
3000

Same for "CC(C)N1C2CC3CC1CC(NC(=O)c1c(O)c4ccccc4n(C(C)C)c1=O)(C3)C2"
2730

Same for CC(C)n1c(=O)c(C(=O)NC2C3CCN(CC3)C2Cc2ccccc2)c(O)c2ccccc21 (stereo not drawn)
3920

* * *

protocolDetails: Rodent pharmacokinetic study
Format: in vivo
experimentalSetup: Wistar, rat; Wister/Male rats, 5 mg/kg, Oral, vehicle Water, plasma
Cmax listing for selected compounds.
Quick note: unit goes after the number.

Use the examples below as a reference point.
molSmiles: CC(C)n1c(=O)c(C(=O)NCCCN2C3CC4CC2CC(O)(C4)C3)c(O)c2ccccc21
Cmax: 216 ng/mL

molSmiles: CC(C)n1c(=O)c(C(=O)NCCCN2C3CC4CC(C3)CC2C4)c(O)c2ccccc21.Cl
Cmax: 211 ng/mL

Let's switch to this compound now.
Param item = "CC(C)n1c(=O)c(C(=O)NC23CC4CC(C2)N(C)C(C4)C3)c(O)c2ccccc21" ; retrieve measured Cmax.
67 ng/mL

* * *

protocolDetails: Rodent pharmacokinetic study
Assay type: in vivo
experimentalSetup: Wistar, rat; Wister/Male rats, 5 mg/kg, Intravenous, vehicle Water, plasma
Cmax listing for selected molecules.
Enter your answer as a number in ng/mL; do not include the unit.

Use the examples below as a reference point.
molecule: CC(C)n1c(=O)c(C(=O)NCCCN2C3CC4CC2CC(O)(C4)C3)c(O)c2ccccc21 [Example 4]
uom: ng/mL
numericValue: 803
//
molecule: CC(C)n1c(=O)c(C(=O)NCCCN2C3CC4CC(C3)CC2C4)c(O)c2ccccc21.Cl [Example 1]
uom: ng/mL
numericValue: 1170

Let's switch to this molecule now.
Param item = CC(C)n1c(=O)c(C(=O)NC23CC4CC(C2)N(C)C(C4)C3)c(O)c2ccccc21 [Example 14] ; retrieve measured Cmax.
523

* * *

protocolDetails: Rodent pharmacokinetic study
Assay type: in vivo
experimentalSetup: Wistar, rat; Wister/Male rats, 5 mg/kg, Intravenous, vehicle Water, plasma
half-life listing for selected compounds.
Quick note: unit goes after the number.

Use the examples below as a reference point.
compound: CC(C)n1c(=O)c(C(=O)NCCCN2C3CC4CC2CC(O)(C4)C3)c(O)c2ccccc21 [Example 4]
half-life: 2.64 h
--
compound: CC(C)n1c(=O)c(C(=O)NC23CC4CC(C2)N(C)C(C4)C3)c(O)c2ccccc21 [Example 14]
half-life: 3.31 h

Let's switch to this compound now.
Param item = CC(C)n1c(=O)c(C(=O)NCCCN2C3CC4CC(C3)CC2C4)c(O)c2ccccc21.Cl [Example 1] ; retrieve measured half-life.
1.88 h
